Molecular target: T1, CRBN, Q96SW2;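 also: pooled lentiviral library of zinc finger degron-EGFP fusions in mCherry-positive Jurkat cells, FACS-sorted after compound exposure, with degron abundance counted by next-generation sequencing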
T1 chain: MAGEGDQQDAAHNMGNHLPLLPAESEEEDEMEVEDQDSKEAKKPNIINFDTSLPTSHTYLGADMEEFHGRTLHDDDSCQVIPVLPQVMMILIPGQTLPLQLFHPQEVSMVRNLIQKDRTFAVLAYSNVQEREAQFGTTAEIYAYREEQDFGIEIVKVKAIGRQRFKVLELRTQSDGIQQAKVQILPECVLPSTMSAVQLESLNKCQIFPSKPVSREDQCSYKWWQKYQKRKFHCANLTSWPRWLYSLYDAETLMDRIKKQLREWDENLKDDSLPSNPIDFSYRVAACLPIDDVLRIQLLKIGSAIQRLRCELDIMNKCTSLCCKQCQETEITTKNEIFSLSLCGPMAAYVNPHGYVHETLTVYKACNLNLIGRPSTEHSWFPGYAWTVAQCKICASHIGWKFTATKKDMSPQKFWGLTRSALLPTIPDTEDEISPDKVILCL
Assay: log2 fold change of degron read counts, EGFP-low vs EGFP+ sorted cells (limma voom), compound-induced degradation; higher = more compound-induced degradation of the degron-EGFP fusion; degrons are variants of IKZF1/3 zinc finger 2; compound dose not given here
Conditions: Jurkat; 18 h; compound: compound 22 (5-morpholino-thalidomide)
Whole data set: some 8,300 sequences, median “log2 fold change of degron read counts, EGFP-low vs EGFP+ sorted cells (limma voom), compound-induced degradation” near -1.1, cut for the highest 2% near 3.2. For the sample, the highest values were picked, then their nearest neighbours and some sequences at random.
Given measured log2 fold change of degron read counts, output Fulfilled if it is greater than or equal to -0.3 and Not fulfilled if not.

Examples with answers:
FKCEICGAQFTQKGNLLRHIKL [46F_47K_49E_50I_52G_53A_54Q_55F_67L_, Q9UKT9]
Not fulfilled
FFCNQCGAAFTQKGNLLRHIKL [46F_47F_49N_50Q_52G_53A_54A_55F_67L_, Q9UKT9]
Not fulfilled
FHCDICGAPFTQKGNLLRHIKL [46F_47H_49D_50I_52G_53A_54P_55F_67L_, Q9UKT9]
Fulfilled
FECNVCGANFTQKGNLLRHIKL [46F_47E_49N_50V_52G_53A_54N_55F_67L_, Q9UKT9]
Not fulfilled
FFCPVCGANFTQKGNLLRHIKL [46F_47F_49P_50V_52G_53A_54N_55F_67L_, Q9UKT9]
Fulfilled
FQCPVCGAKFTQKGNLLRHIKL [46F_47Q_49P_50V_52G_53A_54K_55F_67L_, Q9UKT9]
Fulfilled

Ask | hey, is log2 fold change of degron read counts for this one >= -0.3? FLCEICGHLFTQKGNLLRHIKL [46F_47L_49E_50I_52G_53H_54L_55F_67L_, Q9UKT9]
Reply | Not fulfilled

Ask | hey, is log2 fold change of degron read counts for this one >= -0.3? FHCPICGAPFTQKGNLLRHIKL [46F_47H_49P_50I_52G_53A_54P_55F_67L_, Q9UKT9]
Reply | Fulfilled

Ask | hey, is log2 fold change of degron read counts for this one >= -0.3? FNCPVCGAKFTQKGNLLRHIKL [46F_47N_49P_50V_52G_53A_54K_55F_67L_, Q9UKT9]
Reply | Fulfilled
